Listing of recorded binding signal by entry.
measured target: p50p50 homodimer (Homo sapiens, UniProt P19838 7-356)
Sequence (P19838 7-356): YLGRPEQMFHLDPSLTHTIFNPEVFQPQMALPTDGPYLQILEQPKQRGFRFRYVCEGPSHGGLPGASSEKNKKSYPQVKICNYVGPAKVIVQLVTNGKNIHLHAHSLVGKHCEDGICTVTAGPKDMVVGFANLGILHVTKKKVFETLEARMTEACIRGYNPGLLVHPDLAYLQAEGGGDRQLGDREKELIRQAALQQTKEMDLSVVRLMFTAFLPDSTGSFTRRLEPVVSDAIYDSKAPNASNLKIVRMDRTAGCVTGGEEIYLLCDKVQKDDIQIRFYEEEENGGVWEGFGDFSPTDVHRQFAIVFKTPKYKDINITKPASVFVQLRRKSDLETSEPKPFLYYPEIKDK
protocol text: protein binding microarray; high values mean tight binding
run parameters: dsDNA, one strand shown
Mention the unit after the number when you answer.

Here is how some sequences turned out for binding signal.
- sequence string: "AAGAACCCCCT"
  result: "1.5 z-score"
- sequence string: "GGGGGCCTCCC"
  result: "0.557 z-score"
- sequence string: "AAGGAACCCCT"
  result: "0.961 z-score"
- sequence string: "AGAGGAATCCC"
  result: "0.189 z-score"
- sequence string: "AGAATGACCCC"
  result: "-0.204 z-score"

Ask | Requested field: binding signal. Item: "AGGAGAACCCT"
Reply | -0.719 z-score

Ask | "CGAGTGGTCCC" , same question.
Reply | -0.0725 z-score

Ask | "AGGGACGTCCT" , same question.
Reply | 0.528 z-score

Ask | "GAGAGTATCCC" , same question.
Reply | -0.91 z-score

Ask | "AGATTGACCCT" , same question.
Reply | -0.594 z-score
